- MEASUREMENT_TARGET: human Claudin-6 (CLDN6) (human) (UniProt P56747)
- TEST_METHOD_NOTES: FACS, limiting dilution, OV90 cells
MEASUREMENT_LABEL: FACS signal at 200 nM
No unit in the answer, only the number.

Look over these answered cases.
1. AB S3 (antibody, V domains shown) VH: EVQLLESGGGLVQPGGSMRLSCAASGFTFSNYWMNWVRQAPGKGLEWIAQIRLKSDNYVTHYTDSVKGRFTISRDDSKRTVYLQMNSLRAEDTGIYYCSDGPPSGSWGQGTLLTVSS VL: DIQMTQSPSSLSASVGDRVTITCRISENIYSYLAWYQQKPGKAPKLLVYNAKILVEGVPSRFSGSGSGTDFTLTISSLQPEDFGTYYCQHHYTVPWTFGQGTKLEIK :: 63100
2. AB S5 (antibody, V domains shown) VH: EVQLLESGGGLVQPGGSMRLSCAASGFTFSNYWMNWVRQAPGKGLEWLAQIRLKSDNYATHYTDSVKGRFTISRDDSKRTVYLQMNSLRAEDTGIYYCSDGPPSGSWGQGTLLTVSS VL: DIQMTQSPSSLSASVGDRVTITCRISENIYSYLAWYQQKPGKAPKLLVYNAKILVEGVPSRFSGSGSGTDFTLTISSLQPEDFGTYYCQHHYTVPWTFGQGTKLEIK :: 73300
3. AB S10 (antibody, V domains shown) VH: QVQLVQSGAEVKKPGASVKMSCKASGYTFTTYTMHWVRQAPGQGLEWIGFINPSSGYTEYAQKFQGRVTLTADKSTSTVYMELSSLRSEDTAVYYCANGDYYVGYWGQGTLVTVSS VL: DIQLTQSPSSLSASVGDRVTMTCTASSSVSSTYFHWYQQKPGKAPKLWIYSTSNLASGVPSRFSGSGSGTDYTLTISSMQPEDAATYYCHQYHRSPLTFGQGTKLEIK :: 87900
4. AB S11 (antibody, V domains shown) VH: QVQLVQSGAEVKKPGASVKMSCKASGYTFTTYTIHWVRQAPGQGLEWIGVINPSSGYTEYAQKFQGRVTLTADKSTSTVYMELSSLRSEDTAVYFCANGDYYVAYWGQGTLVTVSS VL: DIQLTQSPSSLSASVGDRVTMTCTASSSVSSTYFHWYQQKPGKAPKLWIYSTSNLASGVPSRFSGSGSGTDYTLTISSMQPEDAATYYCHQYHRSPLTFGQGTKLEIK :: 85600
5. AB S4 (antibody, V domains shown) VH: EVQLLESGGGLVQPGGSMRLSCAASGFTFSNYWMNWVRQAPGKGLEWIAQIRLKSDNYATHYTDSVKGRFTISRDDSKSTVYLQMNSLRAEDTGTYYCNDGPPSGSWGQGTLLTVSS VL: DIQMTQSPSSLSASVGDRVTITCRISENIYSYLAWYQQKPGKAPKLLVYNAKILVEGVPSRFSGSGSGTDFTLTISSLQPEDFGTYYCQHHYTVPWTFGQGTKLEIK :: 15900

// FACS signal at 200 nM lookup, binder = AB S2 (antibody, V domains shown) VH: EVQLLESGGGLVQPGGSMRLSCAASGFTFSNYWMNWVRQAPGKGLEWIAQIRLKSDNYATHYADSVKGRFTISRDDSKRTVYLQMNSLRAEDTGTYYCSDGPPSGSWGQGTLLTVSS VL: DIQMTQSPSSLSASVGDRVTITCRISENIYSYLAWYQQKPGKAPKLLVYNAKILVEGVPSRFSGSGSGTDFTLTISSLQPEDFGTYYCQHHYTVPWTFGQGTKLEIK , result: 53400

// FACS signal at 200 nM lookup, binder = AB S7 (antibody, V domains shown) VH: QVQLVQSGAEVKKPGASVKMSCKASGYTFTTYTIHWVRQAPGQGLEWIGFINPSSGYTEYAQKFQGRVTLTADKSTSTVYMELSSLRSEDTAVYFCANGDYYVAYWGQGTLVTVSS VL: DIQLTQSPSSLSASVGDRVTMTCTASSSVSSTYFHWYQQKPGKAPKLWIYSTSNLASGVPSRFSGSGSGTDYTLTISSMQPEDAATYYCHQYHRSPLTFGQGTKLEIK , result: 24000

// FACS signal at 200 nM lookup, binder = AB3-7 (antibody, V domains shown, humanized; also called AB23; humanized AB3-7) VH: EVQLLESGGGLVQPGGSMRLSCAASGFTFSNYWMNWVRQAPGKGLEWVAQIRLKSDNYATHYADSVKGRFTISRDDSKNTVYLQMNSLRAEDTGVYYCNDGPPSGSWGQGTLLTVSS VL: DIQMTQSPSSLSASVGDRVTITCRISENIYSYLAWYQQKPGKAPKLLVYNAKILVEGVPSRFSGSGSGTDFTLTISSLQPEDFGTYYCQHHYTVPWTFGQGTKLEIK , result: 2330
